Test system: Alopecurus myosuroides
Assay: Pre-emergence herbicidal activity, glasshouse pot test
Assay type: in vivo
Details: pre-emergence spray, rate 1000 g/ha, evaluated after 13 days, scale 0-5
Readout: ALOMY damage score, application pre-emergence

The cases that follow already have their ALOMY damage score, application pre-emergence on record.
{"Molecule": "CC1=C(Cl)C(=O)N(c2cc(C(C)(C)C#N)ccn2)C1O (stereo not drawn) [AF100]", "Assay system": "Alopecurus myosuroides", "Result": 4}
{"Molecule": "CC1=C(Cl)C(=O)N(c2cc(/C=C/C(C)(C)C)ccn2)C1O (stereo not drawn) [AF26]", "Assay system": "Alopecurus myosuroides", "Result": 0}
{"Molecule": "C=C(OCC)c1nnc(N2C(=O)C(OC)=C(C)C2O)cc1C(C)(C)F (stereo not drawn) [BI13]", "Assay system": "Alopecurus myosuroides", "Result": 4}
{"Molecule": "CC1=C(Cl)C(=O)N(c2cc(C3(C#N)CC3)ncn2)C1O (stereo not drawn) [CF17]", "Assay system": "Alopecurus myosuroides", "Result": 3}
{"Molecule": "CC1=C(Cl)C(=O)N(c2cc(C(C)F)ccn2)C1O (stereo not drawn) [AF40]", "Assay system": "Alopecurus myosuroides", "Result": 2}
{"Molecule": "CC(C)=C(C)c1cnc(N2C(=O)C(Cl)=C(C)C2O)cc1C(F)(F)F (stereo not drawn) [AF2]", "Assay system": "Alopecurus myosuroides", "Result": 0}
{"Molecule": "COC1=C(C)C(O)N(c2cc(C(C)(C)C)c(-c3ccc(F)nc3)nn2)C1=O (stereo not drawn) [BI30]", "Assay system": "Alopecurus myosuroides", "Result": 4}
{"Molecule": "COc1ccc(N2C(=O)C(Cl)=C(C)C2O)nn1 (stereo not drawn) [BF8]", "Assay system": "Alopecurus myosuroides", "Result": 2}

Exercise: What ALOMY damage score, application pre-emergence appears in the records for this molecule with Alopecurus myosuroides? CC1=C(Cl)C(=O)N(c2cc(C(F)(F)F)c(Br)cn2)C1O (stereo not drawn) [AF57]
Key: 3

Exercise: What ALOMY damage score, application pre-emergence appears in the records for this molecule with Alopecurus myosuroides? COC1=C(C)C(O)N(c2ccc(C(=O)NC(C)(C)C#N)nn2)C1=O (stereo not drawn) [BI7]
Key: 3

Exercise: What ALOMY damage score, application pre-emergence appears in the records for this molecule with Alopecurus myosuroides? COC1=C(C)C(O)N(c2cc(C(C)F)c(Cl)nn2)C1=O (stereo not drawn) [BI10]
Key: 3

Exercise: What ALOMY damage score, application pre-emergence appears in the records for this molecule with Alopecurus myosuroides? CCOC(=O)c1cnc(N2C(=O)C(Cl)=C(C)C2O)cc1Cl (stereo not drawn) [AF101]
Key: 0

Exercise: What ALOMY damage score, application pre-emergence appears in the records for this molecule with Alopecurus myosuroides? CC1=C(Br)C(=O)N(c2cc(C(F)(F)F)ccn2)C1O (stereo not drawn) [AG1]
Key: 2

Exercise: What ALOMY damage score, application pre-emergence appears in the records for this molecule with Alopecurus myosuroides? CC1=C(Cl)C(=O)N(c2cc(C(C)C)c(Cl)nn2)C1O (stereo not drawn) [BF10]
Key: 4

Exercise: What ALOMY damage score, application pre-emergence appears in the records for this molecule with Alopecurus myosuroides? C#CCNC(=O)c1cnc(N2C(=O)C(OC)=C(C)C2O)cc1C(F)(F)F (stereo not drawn) [AI10]
Key: 4

Exercise: What ALOMY damage score, application pre-emergence appears in the records for this molecule with Alopecurus myosuroides? CC1=C(Cl)C(=O)N(c2cc(C(C)(C)C#N)ncn2)C1O (stereo not drawn) [CF14]
Key: 3

Exercise: What ALOMY damage score, application pre-emergence appears in the records for this molecule with Alopecurus myosuroides? COC1=C(C)C(O)N(c2cc(C(C)C)c(Cl)nn2)C1=O (stereo not drawn) [BI2]
Key: 4

Exercise: What ALOMY damage score, application pre-emergence appears in the records for this molecule with Alopecurus myosuroides? COC1=C(C)C(O)N(c2cc(C(C)(C)C)ccn2)C1=O (stereo not drawn) [AI4]
Key: 3

Exercise: What ALOMY damage score, application pre-emergence appears in the records for this molecule with Alopecurus myosuroides? CC1=C(Br)C(=O)N(c2cc(C(C)(C)C#N)ncn2)C1O (stereo not drawn) [CG3]
Key: 4

Exercise: What ALOMY damage score, application pre-emergence appears in the records for this molecule with Alopecurus myosuroides? CCOC(=O)C(C)(C)c1cc(N2C(=O)C(Cl)=C(C)C2O)ncn1 (stereo not drawn) [CF11]
Key: 2

Exercise: What ALOMY damage score, application pre-emergence appears in the records for this molecule with Alopecurus myosuroides? CC1=C(Cl)C(=O)N(c2cc(C(F)(F)F)c(-c3ccc(Cl)cc3)cn2)C1O (stereo not drawn) [AF87]
Key: 2

Exercise: What ALOMY damage score, application pre-emergence appears in the records for this molecule with Alopecurus myosuroides? CC1=C(Cl)C(=O)N(c2ccc(C#N)cn2)C1O (stereo not drawn) [AF60]
Key: 0

Exercise: What ALOMY damage score, application pre-emergence appears in the records for this molecule with Alopecurus myosuroides? CCc1cc(N2C(=O)C(OC)=C(C)C2O)ncc1Br (stereo not drawn) [AI22]
Key: 3

Exercise: What ALOMY damage score, application pre-emergence appears in the records for this molecule with Alopecurus myosuroides? CC1=C(Cl)C(=O)N(c2cc(C(F)(F)F)c(C(=O)NC(C)(C)C)cn2)C1O (stereo not drawn) [AF88]
Key: 4

Exercise: What ALOMY damage score, application pre-emergence appears in the records for this molecule with Alopecurus myosuroides? COC1=C(OC)C(O)N(c2ccc(C(F)(F)F)nn2)C1=O (stereo not drawn) [BK2]
Key: 0

Exercise: What ALOMY damage score, application pre-emergence appears in the records for this molecule with Alopecurus myosuroides? CC1=C(Cl)C(=O)N(c2ncc(F)cc2F)C1O (stereo not drawn) [AF62]
Key: 0

Exercise: What ALOMY damage score, application pre-emergence appears in the records for this molecule with Alopecurus myosuroides? CC#Cc1nnc(N2C(=O)C(OC)=C(C)C2O)cc1C(C)(F)F (stereo not drawn) [BI18]
Key: 3

Exercise: What ALOMY damage score, application pre-emergence appears in the records for this molecule with Alopecurus myosuroides? CC1=C(Cl)C(=O)N(c2cc(C#N)ncn2)C1O (stereo not drawn) [CF13]
Key: 0
